// merged dataset of IC50 values, system = Poly [ADP-ribose] polymerase 1 (Homo sapiens), multiple refs
One threshold, 30 nM, splits the recorded IC50 values: lower ones are satisfied, equal or higher ones are not satisfied.

{"molecule": "COc1cccc(-c2nnc([C@H]3CC[C@H](NC(=O)CCCc4nc5ccccc5c(=O)[nH]4)CC3)o2)c1", "assignedLabel": "not satisfied"}
{"molecule": "C=CCn1ccc2c(=O)[nH]c(-c3ccc(C(F)(F)F)cc3)nc21", "assignedLabel": "not satisfied"}
{"molecule": "O=C(C1CC1)N1CCC(C2Cc3[nH]c(=O)c4ccccc4c3CO2)CC1 (racemic)", "assignedLabel": "not satisfied"}
{"molecule": "CCc1cc2ncc(CN3CC(Nc4ccc(C(=O)NC)nc4)C3)cc2[nH]c1=O", "assignedLabel": "satisfied"}
{"molecule": "O=C(c1cc(Cc2n[nH]c(=O)c3ccccc23)ccc1F)N1CC2CN(Cc3ccccc3)CC2C1 (single isomer, unassigned)", "assignedLabel": "satisfied"}
{"molecule": "O=c1[nH]nc2c3c(cc(F)cc13)NCC2c1ccc(F)cc1F (centres unmarked)", "assignedLabel": "not satisfied"}
